Provenance of the data: patent US20240182547A1

Catalogue of koff readings, one per entry.
biological target: recombinant F-protein (respiratory syncytial virus (RSV)) (UniProt P03420); test: SPR Biacore T-200, antibody captured on protein A chip, F-protein as analyte
Sequence (P03420 whole entry): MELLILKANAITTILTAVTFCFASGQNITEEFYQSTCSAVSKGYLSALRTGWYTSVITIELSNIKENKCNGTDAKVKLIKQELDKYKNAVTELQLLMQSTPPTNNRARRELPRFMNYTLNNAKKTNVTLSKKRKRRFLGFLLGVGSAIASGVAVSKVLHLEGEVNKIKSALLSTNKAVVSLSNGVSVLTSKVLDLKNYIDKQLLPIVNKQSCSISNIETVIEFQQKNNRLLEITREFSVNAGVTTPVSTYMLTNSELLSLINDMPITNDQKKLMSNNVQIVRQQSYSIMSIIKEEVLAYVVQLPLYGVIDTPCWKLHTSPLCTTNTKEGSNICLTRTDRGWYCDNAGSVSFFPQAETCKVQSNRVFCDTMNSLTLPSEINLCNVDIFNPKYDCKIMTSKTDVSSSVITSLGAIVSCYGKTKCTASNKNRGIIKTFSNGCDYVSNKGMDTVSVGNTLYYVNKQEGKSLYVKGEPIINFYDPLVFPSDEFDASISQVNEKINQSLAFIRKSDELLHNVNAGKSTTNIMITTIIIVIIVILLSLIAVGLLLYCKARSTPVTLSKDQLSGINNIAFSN
// note: answer is a bare numeric in s⁻¹

Record excerpt, results attached:
[[record]]
binder = "2H1 (antibody, V domains shown) VH: QVTLKESGGGVVQSGRSLRLSCAASGFTFSSYTMHWVRQAPGKGLEWVSSITGGSSYVDYSASVKGRFTISRDNAQSSLYLQMNSLRAEDTAVYYCARDDYGSGSYSNWFDPWGQGTLVTVSS VL: QSVLTQPPSVSGAPGQRVTISCTGSSSNIGAGYDVHWYQQLPGRAPKLLIYANTNRPSGVADRFSGSKSGASASLAITGLQADDEADYYCQSYDRSLSHVFGTGTKVTVLG"
number = "5.74e-05"

[[record]]
binder = "12B11 (antibody, V domains shown) VH: EVQLVESGGGVVQPGRSLRLACAASGFTFNSYAMHWVRQAPGKGLEWVSSITGGSSYVDYSASVKGRFTISRDNAQSSLYLQMNSLRAEDTAVYYCARDMYGLGSYYSPNYFDPWGQGTLVTVSS VL: SYELTQPPSVSGAPGQRVTISCTGSSSNIGAGYDVHWYQQLPGRAPKLLIFANTNRPSGVPDRFSGSKSGTSASLAITGLQAEDEADYYCQSYDSSLSYVFGTGTKVTVLG"
number = "2.89e-05"


Ask | Specify reported koff for the binder shown: 10E7 (antibody, V domains shown) VH: EVQLVESGGGLVKPGGSLRLSCAASGFTFTSYRMHWVRQAPGKGLEWVSSITGGGNYIEYADSVKGRFTISRDNAKNSLDLQMNSLRAEDTAIYYCARDMYGLGSYYSPNYFDSWGQGTLVTVSS VL: QSVLTQPPSVSGAPGQRVTISCTGSSSNIGAGYDVHWYQQLPGRAPKLLIFANTNRPSGVPDRFSGSKSGASASLAITGLQADDEADYYCQSYDRSLSHVFGTGTKVTVLG
Reply | 2.81e-05
